Data provenance is patent US20130165475A1.

Measured remaining activity at 0.1 µM by item
Biological target: PDGFRβ (Homo sapiens)
Construct: expressed in transfected cells; host or cells: CHO cells
Sequence (P09619 33-1106): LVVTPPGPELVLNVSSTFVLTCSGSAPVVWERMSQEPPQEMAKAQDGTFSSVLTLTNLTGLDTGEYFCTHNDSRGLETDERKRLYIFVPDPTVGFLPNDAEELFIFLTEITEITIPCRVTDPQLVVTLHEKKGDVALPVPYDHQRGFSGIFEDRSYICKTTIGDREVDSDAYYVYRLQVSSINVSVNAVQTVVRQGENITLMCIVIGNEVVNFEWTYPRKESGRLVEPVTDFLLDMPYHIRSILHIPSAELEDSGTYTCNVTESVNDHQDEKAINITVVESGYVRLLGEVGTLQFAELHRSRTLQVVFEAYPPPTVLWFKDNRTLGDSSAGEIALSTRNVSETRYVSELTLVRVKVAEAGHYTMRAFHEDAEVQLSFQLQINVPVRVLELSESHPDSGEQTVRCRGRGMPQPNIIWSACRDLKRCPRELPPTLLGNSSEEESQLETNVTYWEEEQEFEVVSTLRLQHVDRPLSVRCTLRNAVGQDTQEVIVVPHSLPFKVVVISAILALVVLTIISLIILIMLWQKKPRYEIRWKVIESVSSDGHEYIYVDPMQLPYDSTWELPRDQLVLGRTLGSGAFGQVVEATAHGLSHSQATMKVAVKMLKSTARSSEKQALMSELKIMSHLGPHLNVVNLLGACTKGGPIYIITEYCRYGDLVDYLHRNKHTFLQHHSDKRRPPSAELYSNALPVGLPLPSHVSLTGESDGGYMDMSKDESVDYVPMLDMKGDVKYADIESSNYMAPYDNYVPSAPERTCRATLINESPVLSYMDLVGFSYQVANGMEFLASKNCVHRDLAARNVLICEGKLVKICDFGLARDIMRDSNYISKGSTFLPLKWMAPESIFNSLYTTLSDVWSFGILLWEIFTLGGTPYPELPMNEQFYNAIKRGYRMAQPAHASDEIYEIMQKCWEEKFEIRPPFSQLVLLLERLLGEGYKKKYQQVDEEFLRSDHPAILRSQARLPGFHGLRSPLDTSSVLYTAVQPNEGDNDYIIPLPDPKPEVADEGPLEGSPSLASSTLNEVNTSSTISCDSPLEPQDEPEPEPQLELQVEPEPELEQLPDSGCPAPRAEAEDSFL
Assay: PDGFRβ cell-based assay (ELISA, phosphor-/total PDGFRβ in transfected CHO cells)
Conditions: compound at 100 nM; CHO cells transfected with full length PDGFRβ; FBS stimulation; read-out: % PDGFRβ kinase activity remains
Method: A standard cell-based assay for PDGFRβ kinase activity can be used to test or screen the compounds of this invention and to identify PDGFRβ antagonists. In this example, ELISA kits (R&D Systems, Inc., Minneapolis, Minn. 55413, USA) were used. […] A compound to be tested was first dissolved in DMSO to a concentration of 10 mM and stored at −20° C. […] The phosphor-PDGFRβ or total PDGFRβ were detected with Streptavidin-HRP (R&D Systems), followed by chemiluminescent detection. […]
Where a name gives a salt, the structure may show the parent alone.

Below, each entry is followed by its recorded remaining activity at 0.1 µM result.
compound: [2H]C(c1c[nH]c2ncccc12)N1CCc2c(NC(=O)Nc3cc(Cl)ccc3F)cccc21 (stereo not drawn)
remaining activity at 0.1 µM: ≥ 70%

compound: Cl.[2H]C([2H])([2H])Oc1ccc(Cl)cc1NC(=O)Nc1cccc2c1ccn2C([2H])([2H])c1ccnc2[nH]ccc12
remaining activity at 0.1 µM: < 70%

compound: [2H]C([2H])([2H])Oc1ccc(Cl)cc1NC(=O)Nc1cccc2c1ccn2Cc1ccnc(N)c1
remaining activity at 0.1 µM: < 70%

compound: [2H]C([2H])(c1ccnc2[nH]ccc12)n1ccc2c(NC(=O)Nc3cccc(C)c3)cccc21 [Example 14, hydrochloride]
remaining activity at 0.1 µM: < 70%

compound: Cl.[2H]C([2H])([2H])Oc1ccc(Cl)cc1NC(=O)Nc1cccc2c1CCN2C([2H])([2H])c1ccnc2[nH]ccc12
remaining activity at 0.1 µM: < 70%

Lookup: Input [2H]C(c1c[nH]c2ncccc12)n1ccc2c(NC(=O)Nc3cc(Cl)ccc3OC([2H])([2H])[2H])cccc21 (stereo not drawn) , output reported remaining activity at 0.1 µM.
Found: ≥ 70%

Lookup: Input [2H]C(c1c[nH]c2ncccc12)N1CCc2c(NC(=O)Nc3cc(Cl)ccc3OC([2H])([2H])[2H])cccc21 (stereo not drawn) , output reported remaining activity at 0.1 µM.
Found: ≥ 70%

Lookup: Input [2H]C([2H])(c1ccnc2[nH]ccc12)N1CCc2c(NC(=O)Nc3cccc(C)c3)cccc21 [Example 13, hydrochloride] , output reported remaining activity at 0.1 µM.
Found: < 70%

Lookup: Input [2H]C([2H])([2H])Oc1ccc(Cl)cc1NC(=O)Nc1cccc2c1CCN2Cc1ccnc(N)c1 , output reported remaining activity at 0.1 µM.
Found: < 70%

Lookup: Input [2H]C(c1c[nH]c2ncccc12)n1ccc2c(NC(=O)Nc3cccc(C)c3)cccc21 (stereo not drawn) , output reported remaining activity at 0.1 µM.
Found: < 70%

Lookup: Input Cl.[2H]C([2H])(c1ccnc(N)c1)n1ccc2c(NC(=O)Nc3cc(Cl)ccc3OC)cccc21 , output reported remaining activity at 0.1 µM.
Found: < 70%

* * *

Target: EphB4 (Homo sapiens, UniProt P54760)
Construct: EphB4 autophosphorylation in PC-3 human prostate cancer cells; host or cells: PC-3 human prostate cancer cells
Sequence (P54760 16-987): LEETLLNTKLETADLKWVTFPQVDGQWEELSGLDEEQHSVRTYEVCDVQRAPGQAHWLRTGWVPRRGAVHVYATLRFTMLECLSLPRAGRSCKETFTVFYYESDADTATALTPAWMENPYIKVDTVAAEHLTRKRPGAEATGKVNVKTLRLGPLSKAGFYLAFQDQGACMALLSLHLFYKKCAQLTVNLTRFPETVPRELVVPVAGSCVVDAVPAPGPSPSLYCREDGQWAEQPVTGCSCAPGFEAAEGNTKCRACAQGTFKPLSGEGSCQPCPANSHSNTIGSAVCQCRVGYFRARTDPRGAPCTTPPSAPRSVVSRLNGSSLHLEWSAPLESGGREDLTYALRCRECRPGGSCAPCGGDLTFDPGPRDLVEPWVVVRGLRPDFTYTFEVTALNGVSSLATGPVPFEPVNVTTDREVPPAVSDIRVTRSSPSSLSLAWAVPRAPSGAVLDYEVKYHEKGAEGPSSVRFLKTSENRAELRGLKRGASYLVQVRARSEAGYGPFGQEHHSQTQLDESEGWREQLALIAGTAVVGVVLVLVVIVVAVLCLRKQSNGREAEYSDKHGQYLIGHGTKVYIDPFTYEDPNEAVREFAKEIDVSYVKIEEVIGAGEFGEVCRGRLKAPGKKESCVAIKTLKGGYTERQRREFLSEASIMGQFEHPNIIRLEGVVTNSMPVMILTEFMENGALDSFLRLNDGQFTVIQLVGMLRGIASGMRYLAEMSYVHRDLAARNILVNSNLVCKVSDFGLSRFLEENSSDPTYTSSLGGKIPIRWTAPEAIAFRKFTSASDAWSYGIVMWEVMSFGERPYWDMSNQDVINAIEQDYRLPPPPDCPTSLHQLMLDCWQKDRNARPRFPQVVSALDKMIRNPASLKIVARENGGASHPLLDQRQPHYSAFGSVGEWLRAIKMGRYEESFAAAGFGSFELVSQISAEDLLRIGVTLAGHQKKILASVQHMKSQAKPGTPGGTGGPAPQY
Experiment: EphB4 cell-based assay (quantitative Western blotting, PC-3 cells, Ephrin-B2 stimulated)
Conditions: compound at 100 nM; PC-3 human prostate cancer cells; Ephrin-B2 stimulation; read-out: % EphB4 kinase activity remains
Counter-ions that a name gives are not always drawn.
measured_endpoint: remaining activity at 0.1 µM

Below, each entry is followed by its recorded remaining activity at 0.1 µM result.
compound: [2H]C([2H])(c1ccnc2[nH]ccc12)n1ccc2c(NC(=O)Nc3cccc(C)c3)cccc21 [Example 14, hydrochloride]
remaining activity at 0.1 µM: < 70%

compound: [2H]C([2H])([2H])Oc1ccc(Cl)cc1NC(=O)Nc1cccc2c1ccn2Cc1ccnc(N)c1
remaining activity at 0.1 µM: < 70%

Lookup: Quote EphB4 (Homo sapiens, UniProt P54760) remaining activity at 0.1 µM for entry Cl.[2H]C([2H])(c1ccnc(N)c1)n1ccc2c(NC(=O)Nc3cc(Cl)ccc3OC)cccc21 .
Found: < 70%

Lookup: Quote EphB4 (Homo sapiens, UniProt P54760) remaining activity at 0.1 µM for entry [2H]C([2H])(c1ccnc2[nH]ccc12)N1CCc2c(NC(=O)Nc3cccc(C)c3)cccc21 [Example 13, hydrochloride] .
Found: ≥ 70%
